# ASSAY_REMARKS: DUSP6 inhibitors restoring Erk phosphorylation by chemical complementation, primary imaging in DUSP6-transfected HeLa (AID 609)
# EXPERIMENTAL_SETUP: HeLa MKP-3 transfected, phospho-Erk imaging KS statistic; measured here: nuclear pErk red intensity z-score; at 10 µM; stronger effect = higher value; cells stimulated with TPA for 15 min
Assign z-score to each entry below.

Q: Need z-score of `CCOC(=O)c1ccc(N2CC(O)=C(c3nc4ccccc4c(=O)[nH]3)C2=N)cc1` , thanks.
Ans: 1.53

Q: Need z-score of `COc1cc(-c2cc(C(F)(F)F)n3ncc(C(=O)O)c3n2)cc(OC)c1OC` , thanks.
Ans: 0.038

Q: Need z-score of `CC(=O)N=C(N)Sc1nc2ccccc2[nH]1` , thanks.
Ans: 0.434

Q: Need z-score of O=C(C1=C(O)C(=O)N(CCN2CCOCC2)C1c1cccnc1)c1cc2ccccc2o1 (stereo not given) , thanks.
Ans: 0.434

Q: Need z-score of `O=CN1CCN(C(=O)CN2C(=O)c3ccccc3C2=O)CC1` , thanks.
Ans: -1.29

Q: Need z-score of `C=CCn1c(SCC(=O)OC)nc2sc3c(c2c1=O)CCN(C)C3` , thanks.
Ans: -0.762

Q: Need z-score of `Cn1cnc2c1c(=O)[nH]c(=O)n2C` , thanks.
Ans: 1.06

Q: Need z-score of Cc1ccccc1OCC(O)Cn1c(N2CCN(c3ccccc3)CC2)nc2c1c(=O)[nH]c(=O)n2C (stereo not given) , thanks.
Ans: 0.818

Q: Need z-score of Nc1c(C(=O)NCC2CCCO2)c2nc3ccccc3nc2n1/N=C/c1ccncc1 (stereo not given) , thanks.
Ans: 0.517

Q: Need z-score of `OC1(c2cccc(C(F)(F)F)c2)CCN(c2ncnc3c2[nH]c2ccccc23)CC1` , thanks.
Ans: -2.96

---

# ASSAY_REMARKS: inhibitors of TNFa-induced NFkB p65 translocation, primary screen, imaging, HUVEC, MLSMR starter and 10KST1 sets (AID 438);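 further: compound added about 3h40 before a 20 min TNFalpha stimulation; signal is the nuclear over cytoplasmic p65 intensity ratio per well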
# EXPERIMENTAL_SETUP: HUVEC TNFa-induced p65 nuclear translocation; at 2 µM, stronger effect = higher value, 0% TNFa-plus-vehicle, 100% no-TNFa wells
ASSAY_METRIC: inhibition (%)
Please give a number only; it is taken to be in %.

Q: Need inhibition of `CC1(C)Cc2c(c(-c3ccccc3)nc3[nH][nH]c(=O)c23)CO1` , thanks.
Ans: -17.1

Q: Need inhibition of `CCN1CCN(c2nc3c(C)cccn3c(=O)c2/C=C(\C#N)S(=O)(=O)c2ccccc2)CC1` , thanks.
Ans: -1.7

Q: Need inhibition of `Cc1nc2sc(C#N)c(N)c2c2c1CCCC2` , thanks.
Ans: 0.2

Q: Need inhibition of `c1cc2c(cc1C1=Nn3c(nnc3C3CCCCC3)SC1)OCO2` , thanks.
Ans: -0.8

Q: Need inhibition of CCN(CC)CCN1C(=O)C(=O)/C(=C(/O)c2ccc(Cl)cc2)C1c1ccncc1 (stereo not drawn) , thanks.
Ans: 3.7

Q: Need inhibition of `CCCSc1ccc2nc(NC(=O)OC)[nH]c2c1` , thanks.
Ans: 3

Q: Need inhibition of `COc1ccc(-c2nnc3sc(-c4c(OC)cccc4OC)nn23)cc1` , thanks.
Ans: -7.5

Q: Need inhibition of CC(C[N+](C)(C)C)OC(N)=O (stereo not drawn) , thanks.
Ans: 17.2

Q: Need inhibition of `COc1ccc(CCCNC(=O)CC#N)cc1OC` , thanks.
Ans: -3.9

Q: Need inhibition of `COc1ccc(C(=O)/C=C/Nc2cccc(C)n2)cc1OC` , thanks.
Ans: -2.4

Q: Need inhibition of `CC1(C)CN(O)CCN1O` , thanks.
Ans: -5.3

Q: Need inhibition of CCOc1ccc(/C(O)=C2/C(=O)C(=O)N(CCN(C)C)C2c2ccccc2)cc1Cl (stereo not drawn) , thanks.
Ans: -10.3

Q: Need inhibition of Fc1ccc(OCCOCCNCC2CCCO2)cc1 (stereo not drawn) , thanks.
Ans: 0.4

Q: Need inhibition of `CC1=C(C)C(=O)C(CCCCC#CCCCC#CCO)=C(C)C1=O` , thanks.
Ans: 4.4

Q: Need inhibition of `CCN(CC)CCn1c(O)c(N=O)c2ccccc21` , thanks.
Ans: -11.6

Q: Need inhibition of `N#Cc1c(SCC(=O)O)nc(N2CCCCC2)c2c1CCCC2` , thanks.
Ans: 7.3

Q: Need inhibition of `CCOC(=O)CCc1c(C)c(C#N)c2nc3ccccc3n2c1-n1ccnc1C` , thanks.
Ans: -0.8

Q: Need inhibition of `CCCCC[C@H](O)/C=C/C1=C(CCCCCCC(=O)O)C(=O)CC1` , thanks.
Ans: -10.1

Q: Need inhibition of CC1CC(C(F)(F)F)n2ncnc2N1 (stereo not drawn) , thanks.
Ans: -3.5

Q: Need inhibition of `CCOc1ccc(-n2c(SCc3ccc(C#N)cc3)nnc2-c2cccnc2)cc1` , thanks.
Ans: -6

Q: Need inhibition of O=C(NC1(C(F)(F)F)C(=O)Nc2c1c(=O)[nH]c(=O)n2Cc1ccco1)C1CCCCC1 (stereo not drawn) , thanks.
Ans: 4.1

Q: Need inhibition of `O=C1CCC(=O)N1CN(Cc1ccco1)CN1C(=O)CCC1=O` , thanks.
Ans: -4.8

Q: Need inhibition of `Cn1ncc(N=Cc2ccccc2)c1C(N)=O` , thanks.
Ans: 2.9

Q: Need inhibition of CCOC(=O)C1Cc2c([nH]c3ccccc23)C(C)N1 (stereo not drawn) , thanks.
Ans: -12.2

Q: Need inhibition of CC12CCC(C(=O)NCCCN3CCOCC3)(OC1=O)C2(C)C (stereo not drawn) , thanks.
Ans: 5.1

Q: Need inhibition of `CCCCc1cc(=O)oc2c(CN(C)C)c(O)c(Cl)cc12` , thanks.
Ans: -5.1

Q: Need inhibition of `c1ccc(-c2nnc(OCCN3CCOCC3)c3ccccc23)cc1` , thanks.
Ans: -3.3

Q: Need inhibition of `COCCNC(=O)c1c(N)n(/N=C/c2cccs2)c2nc3ccccc3nc12` , thanks.
Ans: 7.2

Q: Need inhibition of `CC1(C)Cc2c(C#N)c(OCC(=O)c3ccc(Cl)cc3)nc(-c3ccoc3)c2CO1` , thanks.
Ans: -2.9

Q: Need inhibition of `Cc1ccc(-c2nnc(-c3cccc(Br)c3)o2)cc1` , thanks.
Ans: -1.8

Q: Need inhibition of CCC(=O)OC1=C2C(=Nc3c(c(=O)n(C)c(=O)n3C)C2c2ccccc2)c2ccccc21 (stereo not drawn) , thanks.
Ans: -2.9

Q: Need inhibition of CCOC(=O)C(CC(=O)O)N1CCCCC1 (stereo not drawn) , thanks.
Ans: -6.2

Q: Need inhibition of `Cc1cc(C)nc(N(C#N)CC(=O)N(c2ccccc2)C(C)C)n1` , thanks.
Ans: -10.3

Q: Need inhibition of `C=CCc1cccc(/C=N/c2ncn[nH]2)c1O` , thanks.
Ans: -9

Q: Need inhibition of O=C(NCCN1CCOCC1)c1cc2n(n1)C(C(F)(F)F)CC(c1ccc(F)cc1)N2 (stereo not drawn) , thanks.
Ans: -2.3

Q: Need inhibition of `c1ccc2c(CC3=NCCN3)cccc2c1` , thanks.
Ans: -0.9

Q: Need inhibition of Cc1[nH]nc2c1C(CCc1ccccc1)C(C#N)=C(N)O2 (stereo not drawn) , thanks.
Ans: -10

Q: Need inhibition of `CC(=O)Nc1nnc(S(N)(=O)=O)s1` , thanks.
Ans: -4.8

Q: Need inhibition of `COc1cccc(-c2nc(N3CCN(Cc4ccccc4)CC3)c3ccccc3n2)c1O` , thanks.
Ans: -4.5

Q: Need inhibition of `C[N+](C)(C)CCOP(=O)([O-])OC[C@H](O)CO` , thanks.
Ans: -2.4

Q: Need inhibition of `C=C(c1ccc(OCCO)cc1)c1ccc(OCCO)cc1` , thanks.
Ans: -11

Q: Need inhibition of `OC[C@H]1O[C@@H](n2cnc3c(Nc4ccccc4)ncnc32)[C@H](O)[C@@H]1O` , thanks.
Ans: -3.3

Q: Need inhibition of CC1(C)Cc2c(C#N)c(NCC3CCCO3)nc(-c3ccco3)c2CO1 (stereo not drawn) , thanks.
Ans: -1.3

Q: Need inhibition of `COCCNc1cc(C)c(C#N)c2nc3ccccc3n12` , thanks.
Ans: 2.6

Q: Need inhibition of `COC(=O)c1sccc1NC(=O)c1c(C)cc(=O)oc1C` , thanks.
Ans: 2.4

Q: Need inhibition of `COc1cccc(OC)c1-c1nn2c(-c3ccccc3Cl)nnc2s1` , thanks.
Ans: -4.2

Q: Need inhibition of `O=C(CCC1CCCC1)N1CCC(N2CCN(c3ccccc3)CC2)CC1` , thanks.
Ans: -9.4

Q: Need inhibition of `CC1=NN(c2ccccc2)C(=O)C1` , thanks.
Ans: -5.9

The reported measurements were obtained from PubChem BioAssay.
